Test system: guinea-pig lung
Assay: Potential bronchodilatation (method of Lulich et al., guinea-pig lung instead of cat lung; pA2 by Arunlakshana and Schild)
Format: cell-based
Conditions: Cavia porcellus, tested at concentrations between 2 x 10^-7 to 2x10^-5 mole/litre
MEASUREMENT_TYPE: Kb (nM)
// return numeric value only (unit: nM, not printed)

Q: For the compound COc1ccc(-c2csc(COC3CC(O)C(N4CCOCC4)C3CC=CCCCC(=O)O)c2)cc1 (racemic) [Example 10b)] , what Kb is on record?
A: 1

Q: Also O=C(O)CCCC=CCC1C(OCc2ccc(Cc3ccccc3)cc2)CC(=O)C1N1CCS(=O)(=O)CC1 (racemic) [11i)] ?
A: 3.16

Q: What do you have for Cc1ccc(-c2ccc(COC3CC(=O)C(N4CCCCC4)C3CC=CCCCC(=O)O)cc2)cc1 (racemic) [11g)] ?
A: 3.16

Q: Same for COc1ccc(-c2ccc(COC3CC(=O)C(N4CCCCC4)C3CC=CCCCC(=O)O)cc2)cc1 (racemic) [11e)]
A: 1.58

Origin of values: patent EP0032432A1
